- measurement.target: SARS-CoV-2 spike protein bearing furin mutation and truncation in retention sequence, on pseudoviral particles (SARS-CoV-2, UniProt P0DTC2 14-1255)
- measurement.protocol: cell-based or functional assay
Answer each item with its documented PV neutralization % (Ab 1 ug/mL).
Number in %, nothing else.

Query: Name the recorded PV neutralization % (Ab 1 ug/mL) for YANG-1102 (antibody, V domains shown) VH: QVQLQESGPGLVKPSGTLSLTCAVSGGSISTTNWWSWVRQSPGRGLEWIGEIFHIGYTNYNPSLKSRVTISVDKSKNQFSLKLNSVTVADTAVYYCARRVVMDTAMAHFDCWGQGTLVTVSS VL: QSVLTQPPSVSGAPGQRVTISCTGSSSNIGAGYDVHWYQHLPGTAPKLLIYININRPSGVPDRFSGSKSGTSASLVIAGLQAEDGADYYCQSYDSSLSGWVFGGGTRLTVL .
Response: 86.9

Query: Name the recorded PV neutralization % (Ab 1 ug/mL) for YANG-1112 (antibody, V domains shown) VH: QITLKESGPTLVKPTQTLTLTCTFSGFSLSTGGVAVGWIRQPPGKALEWLAIIYWDDDKRYSPSLKSRLTITKDTSKNQVVLTMTNMDPVDTATYYCAHWGKDSFDIWGQGTMVTVSS VL: SYELTQPPSVSVSPGQTARITCSGDALPRKYAYWYQQKSGQAPVLVIYEDNNRPSGIPERFSGSSSGTTATLTVSGAQVEDEADYYCYSTDTSGYVVFGGGTKLTVL .
Response: 89.2

Query: Name the recorded PV neutralization % (Ab 1 ug/mL) for YANG-1116 (antibody, V domains shown) VH: EVQLVESGGGLVKPGGSLRLSCEASGFNFRSYALNWVRQAPGKGLEWVSSISTGSSYIFYADSVKGRFTISRDNAKNSLSLQMNSLRAEDTAVYYCAKTGDLPFFDYWGQGTLVTVSS VL: QSALTQPASVSGSPGQSITISCTGTSSDVGRYNYVSWYQQHPGKAPKLMIYEVSNRPSGVSNRFSGSKSGNTASLTISGLQAEDEADYYCISYTSSSTMVFGGGTKLTVL .
Response: 99.2

Query: Name the recorded PV neutralization % (Ab 1 ug/mL) for YANG-1101 (antibody, V domains shown) VH: QLQLQESGPGLVKPSETLSLTCTVSGGSISSSSYYWGWIRQPPGKGLEWIGSIYYSGSIYYNPSLKSRVTISVDTSKNQFSLKLSSVTAADTAVYYCASWFGEFLKADAFDIWGQGTMVTVSS VL: QSALTQPASVSGSPGQSITISCTGTSSDVGGYSYVSWYQQHPGKAPKLMIYDVSKRPSGVSNRFSGSKSGNTASLTISGLQAEDEADYYCCSYAGGSTFVVFGGGTKLTVL .
Response: 98
